Recorded measurements of Avg % Insert, one per entry
# Test system: TTR
# protocol_description: TTR editing in HEK293_Cas9 cells transfected with dgRNAs (Table 4)
# Assay type: cell-based, human
# test_context: HEK293_Cas9 cells (constitutively express Spy Cas9) transfected with dgRNAs
// return numeric value only (unit: %, not printed)

Please review the following examples before continuing.
| seq_string | experimental_value |
| --- | --- |
| GCAACUUACCCAGAGGCAAA (tested as dual guide RNA, chemistry not given here) [CR003356] | 10.03 |
| CCUCCUCUGCCUUGCUGGAC (tested as dual guide RNA, chemistry not given here) [CR003336] | 3.31 |
| UGCACGGCCACAUUGAUGGC (tested as dual guide RNA, chemistry not given here) [CR003349] | 8.03 |

# next sequence below
Provide the reported Avg % Insert (system: TTR) for GCAGGGCGGCAAUGGUGUAG (tested as dual guide RNA, chemistry not given here) [CR003380]
3.64
